assay_name: XTT cell viability assay, CDV alone, H1299 cells
Assay type: cell-based
condition: human; H1299 cells, XTT; read-out: CC50, CDV concentration that reduce the relative cell viability to 50%
Method: Cells frozen in liquid nitrogen were thawed in water bath at 37° C., seeded at T25 flask, and cultured at 70-90% sub-confluent monolayer. Cells were detached with trypsin, and prepared suspension at a concentration of 1.0×10^4 cells/ml. […] Medium in each well of plate was removed, and 150 μL of mixture prepared above was added to each well. Plate was incubated with 5% CO2 at 37° C. for 4 hours, and then calculated absorbance at 450 nm and 690 nm. Protection was determined by the formula below: […]
observable: CC50 at 7 days (µM)

- Nc1ccn(C[C@@H](CO)OCP(=O)(O)O)c(=O)n1.O.O [CDV, dihydrate]: 146

meta.source: patent US20090181931A1
